All values here come from ChEMBL document CHEMBL1140299.

- target: UniProtKB P34972
- Sequence (P34972 whole entry): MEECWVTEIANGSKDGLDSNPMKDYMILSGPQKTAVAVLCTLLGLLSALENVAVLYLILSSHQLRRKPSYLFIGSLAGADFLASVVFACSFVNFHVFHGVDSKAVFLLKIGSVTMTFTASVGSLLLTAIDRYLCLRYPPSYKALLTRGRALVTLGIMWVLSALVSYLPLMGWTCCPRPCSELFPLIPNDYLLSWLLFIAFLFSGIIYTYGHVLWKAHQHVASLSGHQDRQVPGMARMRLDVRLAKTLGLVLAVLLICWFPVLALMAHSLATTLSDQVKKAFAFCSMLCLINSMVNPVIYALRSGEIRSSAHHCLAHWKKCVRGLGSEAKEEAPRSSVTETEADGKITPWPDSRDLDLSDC
- test.details: Displacement of [3H]CP-55940 from human CB2 receptor expressed in CHO cells at 10 uM
- Assay type: cell-based
# Activity per entry
Enter your answer as a number in %; do not include the unit.

Qu. Retrieve Activity measured for O=C(Nc1ccc(Br)cc1)NC(c1ccc(Br)cc1)c1ccc(Br)cc1 and print it.
Ans. 22

====

- target: UniProt:P34972
- test.details: Displacement of [3H]CP-55940 from human CB2 receptor expressed in CHO cells at 10 uM
- Format: cell-based
reported.metric: Activity

Here's what some known entries look like.
| line.notation | target | Activity |
| --- | --- | --- |
| O=C1NC(c2ccc(F)cc2)(c2ccc(F)cc2)C(=O)N1c1ccccc1 | UniProt:P34972 | < 20% |
| O=C(Nc1ccc(Cl)cc1)NC(c1ccccc1)c1ccccc1 | UniProt:P34972 | < 20% |
| CCCCCCc1ccc(NC(=O)NC(c2ccccc2)c2ccccc2)cc1 | UniProt:P34972 | 24% |

Could you now consider this next compound?
Qu. Recall the reported Activity of O=C1NC(c2ccccc2)(c2ccccc2)C(=O)N1c1ccccc1 on UniProt:P34972 and write it down.
Ans. < 20%

====

The reader will find reported Activity values listed item by item below.
- target: UniProtKB P34972
- test.details: Displacement of [3H]CP-55940 from human CB2 receptor expressed in CHO cells at 10 uM
- Format: cell-based
A number alone suffices; assume %.

The examples below pair each entry with its known result.
| line.notation | reported.metric | unit.abbrev | experimental.result |
| --- | --- | --- | --- |
| S=C(Nc1ccccc1)NC(c1ccc(Br)cc1)c1ccc(Br)cc1 | Activity | % | 29 |
| S=C(Nc1ccc(Cl)cc1)NC(c1ccc(Br)cc1)c1ccc(Br)cc1 | Activity | % | 29 |

Qu. Using known records, supply Activity for O=C(Nc1ccccc1)NC(c1ccc(Cl)cc1)c1ccc(Cl)cc1
Ans. 23
